Attribution: the Human Domainome abundance scans (Beltran et al. 2025)

B1: Chromodomain-helicase-DNA-binding protein 4, residues 365 to 417; numbered along this chain, Q14839 (parent)
chain: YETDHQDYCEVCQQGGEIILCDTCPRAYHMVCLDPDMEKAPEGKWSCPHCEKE

- Variants of: B1
- Experiment: abundance fitness (aPCA) (normalised: wild type 0, dead -1); higher = more abundant; growth selection in yeast, the domain comes from the species named
- Conditions used: Homo sapiens
Below is a list of entries, each paired with its recorded abundance fitness value.
Keep the answer to the number alone.

Sample records with abundance fitness:
{"Variant notation": "H29T", "abundance fitness": -0.79}
{"Variant notation": "T23W", "abundance fitness": -0.327}
{"Variant notation": "C47T", "abundance fitness": -0.43}
{"Variant notation": "E38G", "abundance fitness": -0.056}
{"Variant notation": "H29D", "abundance fitness": -0.306}

I'd like to know its abundance fitness. The variant in question is K39T -0.217

I'd like to know its abundance fitness. The variant in question is L20S -0.013

I'd like to know its abundance fitness. The variant in question is G15R 0.075

I'd like to know its abundance fitness. The variant in question is Y28P -0.704

I'd like to know its abundance fitness. The variant in question is P41F 0.034

I'd like to know its abundance fitness. The variant in question is D36L -0.5

I'd like to know its abundance fitness. The variant in question is Y1R 0.048
